Ref: the supplement of paper PMC11061612

System: JJN-3 (Plasma Cell Myeloma);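 also: after 72 h of two-drug dosing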
experimentalDetails: Bliss excess, mean over the matrix (fraction); higher = more synergy
// reported Bliss excess for each item listed
observable: Bliss excess

>  <compound>
CC1(C)CCC(CN2CCN(c3ccc(C(=O)NS(=O)(=O)c4ccc(NCC5CCOCC5)c([N+](=O)[O-])c4)c(Oc4cnc5[nH]ccc5c4)c3)CC2)=C(c2ccc(Cl)cc2)C1 [Venetoclax] + COc1cc(Nc2ncc3c(n2)-c2ccc(Cl)cc2C(c2c(F)cccc2OC)=NC3)ccc1C(=O)O [Alisertib] (first compound max 1 µM, 7x7, partner max 10 µM)

>  <observable>
Bliss excess

>  <valueReported>
0.45

$$$$
>  <compound>
CCN(CCO)CCCOc1ccc2c(Nc3cc(CC(=O)Nc4cccc(F)c4)[nH]n3)ncnc2c1 [AZD2811] + C=CCn1c(=O)c2cnc(Nc3ccc(N4CCN(C)CC4)cc3)nc2n1-c1cccc(C(C)(C)O)n1 [AZD1775] (first compound max 1 µM, partner max 1 µM)

>  <observable>
Bliss excess

>  <valueReported>
-0.0233

$$$$
>  <compound>
CN(C)CCCOc1ccc(-c2ccc3ncc4c(c3c2)n(C2CCOCC2)c(=O)n4C)cn1 [AZD0156] + C[C@@H]1COCCN1C2=NC(=NC(=C2)C3(CC3)[S@](=N)(=O)C)C4=C5C=CNC5=NC=C4 [AZD6738] (first compound max 1 µM, 7x7, partner max 10 µM)

>  <observable>
Bliss excess

>  <valueReported>
0.161

$$$$
>  <compound>
CCN(CCO)CCCOc1ccc2c(Nc3cc(CC(=O)Nc4cccc(F)c4)[nH]n3)ncnc2c1 [AZD2811] + C[C@@H]1COCCN1C2=NC(=NC(=C2)C3(CC3)[S@](=N)(=O)C)C4=C5C=CNC5=NC=C4 [AZD6738] (first compound max 1 µM, 7x7, partner max 10 µM)

>  <observable>
Bliss excess

>  <valueReported>
0.0338

$$$$
